test system: Human immunodeficiency virus 1; experiment: Antiviral activity against HIV-1 harboring E138K mutant infected in human MT4 cells assessed as protection against virus-induced cytotoxicity incubated for 5 days by MTT assay; type: functional, organism-based; conditions: Human immunodeficiency virus 1, MT4, 120 h
# EC50 per entry
Report as a plain number; the unit nM is understood.

Cc1cc(-c2ccc3cc[nH]c3c2)cc(C)c1Nc1ccnc(Nc2ccc(C#N)cc2)n1 | 139
Cc1cc(-c2cccs2)cc(C)c1Nc1ccnc(Nc2ccc(C#N)cc2)n1 | 15
Cc1cnc(Nc2ccc(C#N)cc2)nc1Nc1c(F)cc(-c2cncc(C#N)c2)cc1F | 86
Cc1cc(-c2cc(C)c(Nc3ccnc(Nc4ccc(C#N)cc4)n3)c(C)c2)cc(C)n1 | 58
Cc1cc(-c2cc(F)nc(F)c2)cc(C)c1Nc1ccnc(Nc2ccc(C#N)cc2)n1 | 45
Cc1cnc(Nc2ccc(C#N)cc2)nc1Nc1c(F)cc(-c2ccnc(F)c2)cc1F | 17.9
Cc1cc(-c2cncnc2)cc(C)c1Nc1ccnc(Nc2ccc(C#N)cc2)n1 | 36
Cc1cnc(Nc2ccc(C#N)cc2)nc1Nc1c(F)cc(-c2cncc(C(F)(F)F)c2)cc1F | 482
Cc1cc(-c2ccnc3ccccc23)cc(C)c1Nc1ccnc(Nc2ccc(C#N)cc2)n1 | 36
Cc1cnc(Nc2ccc(C#N)cc2)nc1Nc1c(F)cc(-c2cccs2)cc1F | 12

Qu. For the molecule shown here, `Cc1cnc(Nc2ccc(C#N)cc2)nc1Nc1c(F)cc(-c2ccoc2)cc1F` , give the reported EC50.
Ans. 12.3

Qu. For the molecule shown here, `Cc1cnc(Nc2ccc(C#N)cc2)nc1Nc1c(F)cc(-c2ccsc2)cc1F` , give the reported EC50.
Ans. 49.5

Qu. For the molecule shown here, `Cc1cnc(Nc2ccc(C#N)cc2)nc1Nc1c(F)cc(-c2cccnc2)cc1F` , give the reported EC50.
Ans. 59

Qu. For the molecule shown here, `Cc1ccc(-c2cc(C)c(Nc3ccnc(Nc4ccc(C#N)cc4)n3)c(C)c2)s1` , give the reported EC50.
Ans. 47

Qu. For the molecule shown here, `Cc1cnc(Nc2ccc(C#N)cc2)nc1Nc1c(F)cc(-c2ccncc2)cc1F` , give the reported EC50.
Ans. 9.2

Qu. For the molecule shown here, `Cc1cc(-c2cccc3cc[nH]c23)cc(C)c1Nc1ccnc(Nc2ccc(C#N)cc2)n1` , give the reported EC50.
Ans. 124

Qu. For the molecule shown here, `Cc1cnc(Nc2ccc(C#N)cc2)nc1Nc1c(F)cc(-c2cncnc2)cc1F` , give the reported EC50.
Ans. 87

Qu. For the molecule shown here, `Cc1cc(-c2cc(C)c(Nc3ccnc(Nc4ccc(C#N)cc4)n3)c(C)c2)ccn1` , give the reported EC50.
Ans. 11

Qu. For the molecule shown here, `Cc1cnc(Nc2ccc(C#N)cc2)nc1Nc1c(F)cc(-c2ccc(C#N)nc2)cc1F` , give the reported EC50.
Ans. 8.5

Qu. For the molecule shown here, `Cc1cc(-c2cnc(C#N)nc2)cc(C)c1Nc1ccnc(Nc2ccc(C#N)cc2)n1` , give the reported EC50.
Ans. 65
